Cited source: ChEMBL document CHEMBL1201862

Test system: SF-539
ASSAY_COMMENT: NCI tumour cell line growth inhibition, 48 h
Activity calls are given as the source filed them. No stated cut-off is given here; in the data, active = GI50 up to about 1.1 µM and inactive = higher.
Collected GI50 values appear next to each entry.

C=CCc1cccc2cc(C(=O)Nc3nc(C45CC6CC(CC(C6)C4)C5)cs3)c(=O)oc12    > 100 µM (inactive)

The molecule identified as "COc1cc(/C=C/C(=O)c2sc(-n3nc(-c4ccccc4)cc3-c3ccccc3)nc2C)ccc1O" registered its GI50 at > 100 µM (inactive)

The molecule identified as "Cc1ccc(C(=O)Nc2ccc(CP(=O)(O)O)cc2)cc1NC(=O)c1cccc(N)c1" registered its GI50 at > 100 µM (inactive)

The molecule identified as "CCCCSC(=CC(=O)c1cccc(C(=O)C=C(SCCCC)SCCCC)n1)SCCCC" registered its GI50 at > 100 µM (inactive)

The molecule identified as COc1cc(/C=C2/SC(c3ccccc3)N(c3ccccc3)C2=O)cc(OC)c1OC (stereo not given) registered its GI50 at > 100 µM (inactive)

The molecule identified as "Oc1ccc2c(c1)-c1c(c3ccccc3n1CCN1CCOCC1)CC2" registered its GI50 at 46 µM (inactive)

The molecule identified as "CN1CCc2c1nc(-c1ccc(Cl)cc1)c1c2N(C)CC1" registered its GI50 at 15.4 µM (inactive)

The molecule identified as O=C1C(/C=C/c2ccc(Cl)cc2)=NNC2N1N=C1NC(=O)C3(NN12)c1ccccc1-c1ccccc13 (stereo not given) registered its GI50 at > 100 µM (inactive)

The molecule identified as CCN(CC)c1ccc(Cl)c2c1C(O)(C(C)C)C2(C)C (stereo not given) registered its GI50 at 19.8 µM (inactive)

The molecule identified as CC(C)CC1CC2C(=O)N(c3ccccc3)C(=O)C2c2[nH]c3ccccc3c21 (stereo not given) registered its GI50 at 23.2 µM (inactive)
